System: EPHA1
assay_setup: concentration: 1 μM, replicates: in singlicate; n = 1;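 note: KINOMEscan kinase panel screen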
# Fulfilled = %Inh below 6% (exclusive); Not fulfilled = %Inh at/above 6%

### Prompt State whether 6% exceeds %Inh recorded for CSc1nn2c(=O)cc(N3CCOCC3)nc2n1Cc1cccc(Cl)c1Cl .
### Response Fulfilled

### Prompt State whether 6% exceeds %Inh recorded for N#Cc1ccc(Oc2ccc(Nc3ncnc4cc[nH]c34)cc2Cl)cc1 .
### Response Fulfilled

### Prompt State whether 6% exceeds %Inh recorded for Nc1nc(-c2cccnc2)c(-c2ccnc3ccccc23)s1 .
### Response Fulfilled

### Prompt State whether 6% exceeds %Inh recorded for Nc1n[nH]c2nnc(-c3ccccc3)cc12 .
### Response Not fulfilled

### Prompt State whether 6% exceeds %Inh recorded for Fc1cccc(COc2ccc(Nc3ncnc4sc(-c5ccc[nH]5)cc34)cc2Cl)c1 .
### Response Fulfilled

### Prompt State whether 6% exceeds %Inh recorded for COc1cc2ncnc(Nc3ccc(OCc4ccccc4Br)c(Cl)c3)c2cc1OC.Cl .
### Response Not fulfilled

### Prompt State whether 6% exceeds %Inh recorded for Clc1ccc(-c2cc(-c3c[nH]nc3-c3ccccn3)ccn2)cc1 .
### Response Fulfilled

### Prompt State whether 6% exceeds %Inh recorded for Fc1cccc(COc2ccc(Nc3ncnc4cc[nH]c34)cc2Cl)c1 .
### Response Fulfilled

### Prompt State whether 6% exceeds %Inh recorded for Cl.c1ccc(Cn2ccc3cc(Nc4ncnc5ccccc45)ccc32)cc1 .
### Response Not fulfilled

### Prompt State whether 6% exceeds %Inh recorded for Cc1cccc(-c2nc(Nc3ccc4[nH]nnc4c3)c3ccccc3n2)n1 .
### Response Fulfilled

### Prompt State whether 6% exceeds %Inh recorded for CC(C)(C)OC(=O)NC1CCCN(c2cc(-c3ccc4c(N)n[nH]c4c3)nc(N)n2)C1 (stereo not shown) .
### Response Not fulfilled

### Prompt State whether 6% exceeds %Inh recorded for CC(=O)Nc1n[nH]c2ncc(-c3ccccc3)cc12 .
### Response Not fulfilled

### Prompt State whether 6% exceeds %Inh recorded for O=C(c1ccc(-c2cc(-c3c[nH]nc3-c3ccccn3)ccn2)cc1)N1CCCC1 .
### Response Not fulfilled

### Prompt State whether 6% exceeds %Inh recorded for O=C(Nc1ccccc1)Nc1ccc(Oc2ccc3nccn3n2)cc1 .
### Response Not fulfilled

### Prompt State whether 6% exceeds %Inh recorded for O=c1cc(N2CCOCC2)nc2n(Cc3cccc(Cl)c3)ccn12 .
### Response Not fulfilled

### Prompt State whether 6% exceeds %Inh recorded for O=C(Nc1ccccc1F)NC1CCN(c2ccnc(Nc3ccc(F)cc3)n2)C1 (stereo not shown) .
### Response Fulfilled

###

System: INSRR
assay_setup: concentration: 1 μM, replicates: in singlicate; n = 1
readout: %Inh
I'd appreciate it if you included the unit after the number.

Noted for CCc1nc(-c2cccc(N(C)S(=O)(=O)c3ccccc3)c2)c(-c2ccnc(Nc3ccc(N4CCN(C(C)=O)CC4)nc3)n2)s1 : its %Inh reads 0%

Noted for CC(=O)Nc1n[nH]c2ncc(-c3ccccc3)cc12 : its %Inh reads 12%

Noted for FC(F)(F)c1cc(Nc2nccc(-c3c(-c4ccc(Cl)cc4)nn4ncccc34)n2)ccc1Cl : its %Inh reads 0%

Noted for COC(=O)c1cccc(NC(=O)NCCNc2ccnc(Nc3ccc(F)cc3)n2)c1 : its %Inh reads 0%
